testTarget: UniProt P28335
Sequence (P28335 33-458): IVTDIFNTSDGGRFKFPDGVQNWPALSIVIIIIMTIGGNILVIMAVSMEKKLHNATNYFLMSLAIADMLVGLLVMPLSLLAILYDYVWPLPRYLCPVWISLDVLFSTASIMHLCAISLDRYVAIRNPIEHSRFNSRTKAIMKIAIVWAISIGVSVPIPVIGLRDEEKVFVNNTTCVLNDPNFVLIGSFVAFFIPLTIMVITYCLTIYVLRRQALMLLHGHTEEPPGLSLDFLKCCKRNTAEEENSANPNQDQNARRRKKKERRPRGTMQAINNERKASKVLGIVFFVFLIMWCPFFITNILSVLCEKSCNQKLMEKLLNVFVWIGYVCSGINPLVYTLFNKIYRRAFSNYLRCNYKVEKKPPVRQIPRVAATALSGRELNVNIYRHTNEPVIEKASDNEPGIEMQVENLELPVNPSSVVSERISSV
protocolDetails: Serotonin receptor binding, 5HT2c
conditionLabel: ratio of affinities, 5HT2c over D3
measurementKind: 5HT2c/D

- O=C(NCCC(O)CN1CCN(c2cccc(Cl)c2Cl)CC1)c1ccc(-c2ccccn2)cc1 (stereo not drawn) [Compound 16]: 38
- Cc1cccc(-c2ccc(C(=O)NC/C=C/CN3CCN(c4cccc(Cl)c4Cl)CC3)cc2)n1 [Compound 10]: 69
- COc1ccccc1N1CCN(CC(O)CCNC(=O)c2ccc(-c3ccccn3)cc2)CC1 (stereo not drawn) [Compound 18]: 1407

---

testTarget: human dopamine D3 receptor (Homo sapiens (Human), UniProt P35462)
Sequence (P35462 whole entry): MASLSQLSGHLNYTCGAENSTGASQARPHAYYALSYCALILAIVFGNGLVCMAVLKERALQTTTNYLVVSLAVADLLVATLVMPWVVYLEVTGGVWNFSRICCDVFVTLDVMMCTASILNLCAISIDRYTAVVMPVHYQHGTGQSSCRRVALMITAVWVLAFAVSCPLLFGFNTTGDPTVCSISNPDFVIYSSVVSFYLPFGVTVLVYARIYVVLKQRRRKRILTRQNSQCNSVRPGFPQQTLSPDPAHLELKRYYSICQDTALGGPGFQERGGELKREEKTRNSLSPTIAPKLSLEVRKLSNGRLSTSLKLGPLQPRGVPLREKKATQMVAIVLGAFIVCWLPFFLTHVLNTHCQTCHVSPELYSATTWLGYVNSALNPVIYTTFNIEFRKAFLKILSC
protocolDetails: Human D2-like receptor competition binding in HEK cells, D3
conditionLabel: HEK cells, hD3; read-out: D3 Ki
pKi: −log10 of the molar value.
Each entry below carries its recorded pKi.
measurementKind: pKi

• Cc1cccnc1-c1ccc(C(=O)NC/C=C/CN2CCN(c3cccc(Cl)c3Cl)CC2)cc1 [Compound 11] = 8.80
• COc1ccccc1N1CCN(C/C=C/CNC(=O)c2ccc(-c3ccccn3)cc2)CC1 [Compound 14] = 8.54
• O=C(NCCC(O)CN1CCN(c2cccc(Cl)c2Cl)CC1)c1cc2ccccc2o1 (centres unmarked) [Compound 42] = 9.01
• COc1ccccc1N1CCN(CCC(O)CNC(=O)c2ccc3c(c2)Cc2ccccc2-3)CC1 (centres unmarked) [Compound 23] = 8.89
• CCCOc1ccccc1N1CCN(CC(O)CCNC(=O)c2cc3ccccc3[nH]2)CC1 (centres unmarked) [Compound 38] = 7.21
